# ASSAY_DETAILS: Lipophilicity, log k of the compound by HPLC analysis
# Assay type: physicochemical
Consider the following compounds; for each one, report its log K.
One number for each entry.

The examples below pair each entry with its known result.
chemical_string=CCCCOC(=O)N[C@H](C(=O)N[C@H](C)c1nc2ccc(F)cc2s1)C(C)C property_measured="log K" result_number=0.7135
chemical_string=CC(C)[C@H](NC(=O)OCCBr)C(=O)N[C@H](C)c1nc2ccc(F)cc2s1 property_measured="log K" result_number=0.5418
chemical_string=CC(C)[C@H](NC(=O)OCC(F)(F)C(F)F)C(=O)N[C@H](C)c1nc2ccc(F)cc2s1 property_measured="log K" result_number=0.5237
chemical_string=CCCCOC(=O)N[C@@H](CCC)C(=O)N[C@H](C)c1nc2ccc(F)cc2s1 property_measured="log K" result_number=0.7231
chemical_string=CCC[C@H](NC(=O)OCC(F)(F)C(F)(F)C(F)(F)F)C(=O)N[C@H](C)c1nc2ccc(F)cc2s1 property_measured="log K" result_number=0.9463

For each of the compounds below, state log K.
1. CCCOC(=O)N[C@H](C(=O)N[C@H](C)c1nc2ccc(F)cc2s1)C(C)C
2. CCC[C@H](NC(=O)OCC(F)(F)C(F)F)C(=O)N[C@H](C)c1nc2ccc(F)cc2s1
3. CC(C)[C@H](NC(=O)OCC(F)(F)C(F)(F)C(F)(F)F)C(=O)N[C@H](C)c1nc2ccc(F)cc2s1
4. CCC[C@H](NC(=O)OCCCl)C(=O)N[C@H](C)c1nc2ccc(F)cc2s1

A.
1. 0.5851
2. 0.5415
3. 0.9218
4. 0.514
